Tested on: MS2 coat protein
assay info: apparent KD of MS2 coat protein; designed switch direction (-1 OFF switch, 1 ON switch): -1; higher = weaker reporter binding
condition summary: input ligand: FMN 200 uM
Class field: derived from apparent KD of MS2 coat protein; ranges range A: < 20 nM; range B: ≥ 20 nM and < 50 nM; range C: ≥ 50 nM

AGGCACUAAGGAUAUACAAAGGUGCUGCGUAUGCUAGCCAGACAUGAGGAUCACCCAUGUAGAAGGUAGGAAUA [EX2 B.14] (Eterna round: R97, puzzle: Exclusion 2) = range A
GAUCAUGCAGGAUAUACAGUAACCAUGAAAACAUGGAUCAAACAUGAGGAUCACCCAUGUAGAAGGGCAUGAUC [Omei Ex2 A22] (Eterna round: R97, puzzle: Exclusion 2) = range B

Could you tell me which band UUGCAGUCGUCAGGAUAUAGUAUUACGGCCUUUUAUUUUUUCAUACAUGAGGAUCACCCAUGUCGCUAGAAGGGAUUAUCGAUU [salish99_ExNG2_r04_104] (Eterna round: R96, puzzle: Exclusion NG 2) belongs to?
range B

Kindly identify the class of AAUACAAGCUAUUGAUCCCACAUGAGGAUCACCCAUGUGCCUGGCCGUGAGACAAGGUUUACAAUAGCUCGUCUUAU [Sensor-V1 #46] (Eterna round: R97, puzzle: Sensor, turn-off variant 1) .
range B

Each sequence maps to one class by apparent KD of MS2 coat protein. Which class for AUACACUAACGAGGAUAUUGGAAAGGAAGUGUACAAGAAGGCGUCCGUGGAAGGGUGAAACAUGAGGAUCACCCAUGUGAAUAA [Exclusion NG 1] (Eterna round: R96, puzzle: Exclusion NG 1) ?
range C

Category lookup for the sequence GCAGAUCACGUGAGGAUAUCGUCUACCUCGGUAGUCGAGAAGGCACAUGAGGAUCACCCAUGUGAGUGAUCUGC [Omei Ex4B B2] (Eterna round: R97, puzzle: Brourd's mod of Exclusion 4)
range A
